I'd appreciate it if you could supply pIC50 values for the items below.
assay overview: Inhibition of NOS in Sprague-Dawley rat brain by oxyhaemoglobin assay
Give bare numbers.

[[record]]
substance_smiles = "O=[N+]([O-])c1c2ccccc2cn1C12CC3CC(CC(C3)C1)C2"
measured_value = 3.74


Please look at the items below and tell me pIC50 for each one, in order.
1. N#CSc1c2ccccc2cn1C12CC3CC(CC(C3)C1)C2
2. O=C(NC12CC3CC(CC(C3)C1)C2)c1n[nH]c2ccccc12

[3.88, 3.52]

---

Give measured pIC50 for each item. Keep answers brief.
assay overview: Inhibition of NOS in Sprague-Dawley rat brain by oxyhaemoglobin assay

[[record]]
compound = "CNc1ccccc1C(=O)NC12CC3CC(CC(C3)C1)C2"
measured_value = 2.53


Each compound below has a recorded value; state its pIC50.
1. CNc1ccccc1C(=O)OC12C3C4CC5C6C4C1C6C1(OCCCN12)C53 (stereo unspecified)
2. O=C(O)c1n[nH]c2ccccc12
3. O=C(OC12C3C4CC5C6C4C1C6C1(OCCCN12)C53)c1n[nH]c2ccccc12 (stereo unspecified)
4. N#Cc1c2ccccc2cn1C12CC3CC(CC(C3)C1)C2
5. N=C(N)NN

[2.93, 3.28, 4.22, 4.52, 2.72]

These data points were gathered from ChEMBL document CHEMBL1144247.
